Measured values drawn from patent US9688683B2 for this set.

# TARGET OR SYSTEM: human PDE4B1 (Homo sapiens (Human), UniProt Q07343)
# Sequence (Q07343 whole entry): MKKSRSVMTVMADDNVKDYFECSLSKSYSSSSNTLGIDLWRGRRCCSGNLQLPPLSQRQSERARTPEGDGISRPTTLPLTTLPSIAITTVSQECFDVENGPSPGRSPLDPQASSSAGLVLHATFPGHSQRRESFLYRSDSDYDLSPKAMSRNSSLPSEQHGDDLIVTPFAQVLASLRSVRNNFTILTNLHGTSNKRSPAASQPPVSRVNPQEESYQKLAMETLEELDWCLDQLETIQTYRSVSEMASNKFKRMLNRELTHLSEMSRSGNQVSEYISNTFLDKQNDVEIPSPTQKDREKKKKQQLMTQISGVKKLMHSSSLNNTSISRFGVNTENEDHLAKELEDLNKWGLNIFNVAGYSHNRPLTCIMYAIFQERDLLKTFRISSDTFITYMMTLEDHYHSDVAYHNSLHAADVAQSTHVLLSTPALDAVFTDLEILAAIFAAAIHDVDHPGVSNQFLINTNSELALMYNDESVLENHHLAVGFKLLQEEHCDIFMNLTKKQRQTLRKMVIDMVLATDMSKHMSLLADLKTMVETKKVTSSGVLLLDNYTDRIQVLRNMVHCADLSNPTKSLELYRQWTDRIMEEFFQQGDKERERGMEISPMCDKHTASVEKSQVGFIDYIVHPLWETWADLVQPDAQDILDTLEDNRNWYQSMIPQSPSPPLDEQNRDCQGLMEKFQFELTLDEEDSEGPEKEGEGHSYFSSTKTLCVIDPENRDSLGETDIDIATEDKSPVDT
# PROCEDURE TEXT: cAMP HTRF assay to determine the activity of hPDE4B1
# Format: biochemical
# EXPERIMENTAL CONDITIONS: inhibition of PDE4B at a test substrate concentration of 3 μM
Rule: inhibition at 3 µM of 50% or more gives Criterion met; anything lower gives Criterion not met.

CCOc1cccc(-c2nc(CC)c3c(n2)N(c2ccc(C(=O)O)cc2)CC3)c1 : Criterion not met
CCc1nc(-c2ccc(F)c(OC)c2)nc2c1CCN2c1ccc(CC(=O)O)cc1 : Criterion not met
CCc1nc(-c2ccc(S(C)(=O)=O)cc2)nc2c1ccn2-c1cccc(OCC(=O)N(C)C)c1 : Criterion met
CCc1nc(-c2ccc(OC)cc2)nc2c1ccn2-c1cccc(OCC(=O)N(C)C)c1 : Criterion met
CCc1nc(-c2ccc3ncsc3c2)nc2c1CCN2c1ccc(CC(=O)O)cc1 : Criterion met

Next item in the queue.
Task: Hi, just wondering whether `CCc1nc(-c2ccc(F)c(Cl)c2)nc2c1CCN2c1ccc(CC(=O)O)cc1` shows inhibition at 3 µM of 50% or higher.
Result: Criterion met
